# Tested on: RKO p27 or p21 induced (arrested) colon adenocarcinoma cells
# PROCEDURE TEXT: Alamar Blue cell viability assay, RKO p27 or p21 induced (arrested)
# Format: cell-based
# DETAILS: Homo sapiens, RKOp27, Table B2, cells arrested by Ponasterone A, 72 hours, read-out: −log EC50 RKO p27 or p21 induced (arrested) (converted)
Listed here: items and their measured EC50.

Task: Record lookup: for RKO p27 or p21 induced (arrested) colon adenocarcinoma cells, what EC50 belongs to CN1CCN(CCN2C(=O)N3[C@H](c4cccc(O)c4)c4[nH]c5ccc(Cl)cc5c4C[C@@]3(C)C2=O)CC1 (racemic) ?
Result: ≥ 316 nM
